Every entry's value here was drawn from patent US20240408169A1.

Target: CyclinB1/CDK1 (Homo sapiens)
Construct: purchased Eurofins, discovery 14-450
Experiment: Fluorescence Polarization (FP) competitive binding assay, Cyclin B1/Cdk1;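 also: fluorescence polarization read after equilibration at room temperature, with IC50 taken from serially diluted dose-response curves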
Settings: read-out: Cyclin B FP IC50; 10 nM Cyclin B1/Cdk1, 2 nM FAM probe; average of 2-3 independent experiments
measurementType: pIC50
# log scale: pIC50 equals minus log10 of the concentration in mol/L

[[record]]
compound = "CCN(C(=O)[C@@H](NC(=O)[C@@H]1C[C@@H](F)CN1C(=O)C1(C(F)(F)F)CCC1)C1CC1)[C@H]1CCCCCCCN(C)C(=O)[C@H](Cc2cc(Cl)cnc2OC2CC2)N(C)C(=O)[C@H](CC(C)C)NC1=O [Example 220]"
testedon = "CyclinB1/CDK1 (Homo sapiens)"
measvalue = 7.70


Alright, here's another compound for you.
[in] Given the compound CC(=O)N1[C@H]2CC[C@@H]1C=C(c1ccc(F)cc1C[C@H]1C(=O)N(C)CCCCCCC[C@H](N(C)C(=O)[C@@H](NC(=O)[C@@H]3C[C@@H](F)CN3C(=O)C3(C(F)(F)F)CC(F)(F)C3)C3CC3)C(=O)N[C@@H](CC(C)C)C(=O)N1C)C2 [Example 58] , write its reported pIC50.
[out] 7.70
